Below: a set of entries, each annotated with reported GI50.
Test system: ACHN
protocolSummary: NCI tumour cell line growth inhibition, 48 h
Active and inactive are the calls of the source. No stated cut-off is given here; in the data, active = GI50 up to about 1.1 µM and inactive = higher.

Look over these answered cases.
{"molecule": "COc1cc(C(C)c2cc3c(cc2OCCO)OCO3)cc(OC)c1OC (configuration not stated)", "GI50": "10.1 µM (inactive)"}
{"molecule": "COc1ccc(/C=N/n2c(=O)[nH]c3ccccc3c2=O)cc1", "GI50": "> 100 µM (inactive)"}
{"molecule": "COc1cccc2c1C(CO)N1C(C#N)C3CC(C(=O)O)C(C1C2)N3C (configuration not stated)", "GI50": "3.36 µM (inactive)"}
{"molecule": "N#Cc1nc(CCc2nc(C#N)c(N)o2)oc1N", "GI50": "> 10 µM (inactive)"}

The measured GI50 associated with O=C(N/N=C\c1ccc(Cl)cc1)Nc1ccc2ccccc2c1 reads 43.6 µM (inactive)

The measured GI50 associated with CC(=O)Nc1ccc(C(=O)NN2C(=O)CSC2c2ccc([N+](=O)[O-])cc2)cc1 (configuration not stated) reads > 100 µM (inactive)

The measured GI50 associated with C/C(CC(=O)Nc1ccc(Cl)c(Cl)c1)=N/NC(=O)C[n+]1ccccc1 reads > 100 µM (inactive)

The measured GI50 associated with CC(C)(C)C1CCP(=O)(c2ccccc2)CC1 (configuration not stated) reads > 100 µM (inactive)

The measured GI50 associated with COc1ccc2c(c1)CN1C(=N2)CSC1c1ccccc1Cl (configuration not stated) reads 17.6 µM (inactive)

The measured GI50 associated with Cc1ccc(C(=O)NC(C)(C)C)cc1/N=N/N(C)C reads > 100 µM (inactive)

---

System: OVCAR-4
protocolSummary: NCI tumour cell line growth inhibition, 48 h
Activity calls are given as the source filed them. Rule as the data show it: active = GI50 up to about 1.1 µM and inactive = higher.
In this exercise, the only acceptable responses are active, inactive

{"compound": "COc1ccc([I+]c2ccc(OC)cc2)cc1", "classLabel": "inactive"}
{"compound": "N=C(N)N/N=C\\c1c(-c2cccc([N+](=O)[O-])c2)nc2sccn12", "classLabel": "inactive"}

Hi, do you know how C=C(Cl)C(Cl)(CBr)CCC(Cl)C(C)(C)Cl (stereo not drawn) came out in this test? active

Hi, do you know how c1cc2c(cc1NC1=NCCO1)CCC2 came out in this test? inactive

---

System: OVCAR-3
protocolSummary: NCI tumour cell line growth inhibition, 48 h
Active and inactive are the calls of the source. Cut-off read from the data, not from the text of the source: active = GI50 up to about 1.1 µM and inactive = higher.
Below: a set of entries, each annotated with reported GI50.

Look over these answered cases.
{"compound": "COC1(c2cccs2)c2ccccc2C(OC)(c2cccs2)c2ccccc21 (configuration not stated)", "propertyName": "GI50", "testValue": "> 100 µM (inactive)"}
{"compound": "CCCCN1C(=O)C2c3[nH]c4ccccc4c3C3CCCCC3C2C1=O.CCCCN1C(=O)C2c3[nH]c4ccccc4c3[C@@H]3CCCCC3C2C1=O (configuration not stated)", "propertyName": "GI50", "testValue": "12.4 µM (inactive)"}
{"compound": "CC(=O)OCC(OC(C)=O)C(OC(C)=O)C(OC(C)=O)C(/C=N\\Nc1nc2ccccc2c(=O)[nH]1)=N/Nc1nc2ccccc2c(=O)[nH]1 (configuration not stated)", "propertyName": "GI50", "testValue": "> 100 µM (inactive)"}
{"compound": "COc1cccc(/C=N/NC(=O)CSCC(=O)N/N=C/c2cccc(OC)c2OC)c1OC", "propertyName": "GI50", "testValue": "> 100 µM (inactive)"}
{"compound": "c1ccc(/N=C(\\N2CCOCC2)N(CCN2CCOCC2)c2ccccc2)cc1", "propertyName": "GI50", "testValue": "> 100 µM (inactive)"}
{"compound": "O=C1CCCCC/C1=C\\c1ccccc1", "propertyName": "GI50", "testValue": "> 100 µM (inactive)"}

Please examine the following record next.
The measured GI50 associated with N#CC1(C#N)C(c2ccccc2)C=CC12OCCCO2 (configuration not stated) reads 33 µM (inactive)

---

System: RXF 393
protocolSummary: NCI tumour cell line growth inhibition, 48 h
The source made the active and inactive calls. No stated cut-off is given here; in the data, active = GI50 up to about 1.1 µM and inactive = higher.
In this exercise, the only acceptable responses are 1 for active, -1 for inactive

// below: answered compounds
{"compound": "CC1(C)N=C(N)N=C(N)N1c1ccc(Cl)cc1", "classLabel": -1}
{"compound": "Cc1ccc2c(C3Cc4ccccc4N3C(=O)/C=C\\C(=O)O)c(C)[nH]c2c1 (stereo not drawn)", "classLabel": -1}
{"compound": "CN(C)CCNC(=O)c1cc([N+](=O)[O-])ccn1", "classLabel": -1}
{"compound": "Cc1cccc(C)c1NC(=O)C(=O)C1C(=O)NC(=O)NC1=O", "classLabel": -1}
{"compound": "O=C(COc1ccc(OCC(=O)N2C(=O)CC(=O)N(c3ccc(Cl)cc3)C2=S)cc1)N1C(=O)CC(=O)N(c2ccc(Cl)cc2)C1=S", "classLabel": -1}
{"compound": "c1ccc(CC(Nc2cccnc2)c2ccccc2)cc1 (stereo not drawn)", "classLabel": -1}
{"compound": "COc1ccccc1NC(=O)O/N=C(/Cl)C(C)C", "classLabel": -1}
{"compound": "Cc1cc(Cl)ccc1N1C(=O)C(=O)C(c2nc3ccccc3o2)C(=O)C1=O", "classLabel": -1}
{"compound": "COc1ccc(C2C3=C(COC3=O)Oc3cc4c(cc32)OCO4)cc1OC (stereo not drawn)", "classLabel": 1}
{"compound": "CCCCC/C(=N\\c1[nH]cnc1C(N)=O)OCC", "classLabel": -1}

Hi, do you know how N#CC1(C#N)[C@@H]2CCC=C(Sc3ccccc3)[C@@H]21 came out in this test? -1

Hi, do you know how CC1CC(Nc2ccc(Br)cc2)N(C(=O)c2ccc(Br)cc2)O1 (stereo not drawn) came out in this test? -1

Hi, do you know how Clc1ncc(C(Cl)(Cl)Cl)nc1-c1ccccc1 came out in this test? -1

Hi, do you know how CC(=O)OC(C(=O)NNC(=O)OC(C)(C)C)c1ccccc1 (stereo not drawn) came out in this test? -1

Hi, do you know how COc1cc(/C=C\c2ccncc2)cc(OC)c1OC came out in this test? -1

Hi, do you know how Cc1ccc(C)c(NC(=O)C(Cc2c[nH]c3ccccc23)NC(=O)OCc2ccccc2)c1 (stereo not drawn) came out in this test? -1

Hi, do you know how COc1ccc(/C=N/N=C(\N)NO)c(OC)c1 came out in this test? -1

Hi, do you know how COc1ccc2oc(-c3cc4cc(OC)ccc4o3)cc2c1 came out in this test? -1

---

Below: a set of entries, each annotated with reported GI50.
Tested on: NCI/ADR-RES
protocolSummary: NCI tumour cell line growth inhibition, 48 h
Calls of active or inactive are those of the source. No stated cut-off is given here; in the data, active = GI50 up to about 1.1 µM and inactive = higher.

Look over these answered cases.
{"compound": "CCN(CC)C1=Nc2ccccc2-n2c(C)cnc2C1", "testedOn": "NCI/ADR-RES", "GI50": "> 100 µM (inactive)"}
{"compound": "Cc1ccc(C)c(NC(=O)C(Cc2c[nH]c3ccccc23)NC(=O)OCc2ccccc2)c1 (stereo not drawn)", "testedOn": "NCI/ADR-RES", "GI50": "11.1 µM (inactive)"}
{"compound": "COc1cccc2c(Nc3ccc(S(=O)(=O)N=C(N)N)cc3)c3ccc([N+](=O)[O-])cc3nc12", "testedOn": "NCI/ADR-RES", "GI50": "> 100 µM (inactive)"}

The measured GI50 associated with CC1(C)CCOC(=O)C(Cl)CC1Cl (stereo not drawn) reads > 100 µM (inactive)

The measured GI50 associated with CCCCCC/C=C\CCCCCCCCC(=O)c1cccc(OC)c1OC reads 60.8 µM (inactive)

The measured GI50 associated with O=C1CSC(c2ccccc2)N1c1ccc(-c2ccc(-n3c(-c4ccccc4)nc4ccccc4c3=O)cc2)cc1 (stereo not drawn) reads 43.5 µM (inactive)

The measured GI50 associated with COC(=O)[C@@H]1c2cc3c(c(O)c2[C@@H](OC)C[C@@]1(C)O)C(=O)c1c(O)cc2c(c1C3=O)OC1O[C@@]2(C)[C@H](O)[C@@H](N(C)C)[C@@H]1O reads 2.06 µM (inactive)

The measured GI50 associated with COc1cc2c3c(c1O)C1(C=CC(=O)C=C1)CC3N(C)CC2 (stereo not drawn) reads 2.72 µM (inactive)

---

System: SF-268
protocolSummary: NCI tumour cell line growth inhibition, 48 h
Active and inactive are the calls of the source. Cut-off read from the data, not from the text of the source: active = GI50 up to about 1.1 µM and inactive = higher.
Below: a set of entries, each annotated with reported GI50.

{"compound": "CN(CCC(=O)N1CC(CCl)c2ccc([N+](=O)[O-])cc21)CCC(=O)N1CC(CCl)c2ccc([N+](=O)[O-])cc21 (stereo not drawn)", "GI50": "12.1 µM (inactive)"}
{"compound": "O=C(c1ccccc1)c1ccc2nc3n(c2c1)C(c1c(F)cccc1F)SC3 (stereo not drawn)", "GI50": "9.66 µM (inactive)"}
{"compound": "C[C@]12CC[C@H](O)CC1=CC[C@@H]1[C@@H]2CC[C@]2(C)/C(=N/OCCN3CCCC3)CC[C@@H]12", "GI50": "53.2 µM (inactive)"}
{"compound": "CCN(CC)C1=Nc2ccccc2-n2c(C)cnc2C1", "GI50": "> 100 µM (inactive)"}
{"compound": "Cc1ccc(O)c(C(c2cc(C)ccc2O)c2cc([N+](=O)[O-])ccc2O)c1", "GI50": "7.62 µM (inactive)"}
{"compound": "COc1ccc2c3ccc4c(c3n(C)c2c1)C(=O)c1ccccc1C4=O", "GI50": "56.6 µM (inactive)"}

The measured GI50 associated with N#CC(C#N)=C1NN=C(Cl)c2ccccc21 reads 72.9 µM (inactive)

The measured GI50 associated with O=C1c2ccc3c4ccc5c6c(ccc(c7ccc(c2c37)C(=O)N1CCN1CCCCC1)c64)C(=O)N(CCN1CCCCC1)C5=O reads > 100 µM (inactive)
